// data source = patent US20240392013A1

Molecular target: T1, cyIL1RAP-His (Lake Pharma) (cynomolgus monkey, UniProt A0A2K5X5J5 21-367)
T1 construct: Bought protein (Lake Pharma, lot 16205819371); also called cynomolgus IL1RAP; monkey IL1RAP; not shown: His tag
T1 sequence: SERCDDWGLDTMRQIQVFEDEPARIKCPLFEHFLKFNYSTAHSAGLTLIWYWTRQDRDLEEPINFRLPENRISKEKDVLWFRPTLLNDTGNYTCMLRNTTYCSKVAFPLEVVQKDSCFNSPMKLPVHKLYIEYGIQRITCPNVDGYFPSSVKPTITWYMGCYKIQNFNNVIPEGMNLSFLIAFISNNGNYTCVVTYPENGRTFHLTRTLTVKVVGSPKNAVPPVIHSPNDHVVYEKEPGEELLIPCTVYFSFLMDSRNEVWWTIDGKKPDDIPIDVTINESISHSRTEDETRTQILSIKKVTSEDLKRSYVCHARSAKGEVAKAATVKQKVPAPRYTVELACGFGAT
Assay: Octet BLI; mAb captured on anti-mouse IgG Fc sensor; cyIL1RAP-His analyte
pKd: −log10 of the molar value.
Reported endpoint: pKd

Binder | Recorded result
STLX2007 (antibody, V domains shown, Purified from hybridoma of immunized Alivamab mice; intact IgG; captured on anti-mouse IgG Fc sensors in Octet; kappa light chain; also called 74804_07K10A) VH: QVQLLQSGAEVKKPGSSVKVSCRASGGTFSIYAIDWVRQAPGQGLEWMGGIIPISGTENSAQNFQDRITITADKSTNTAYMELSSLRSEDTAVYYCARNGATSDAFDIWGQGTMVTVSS VL: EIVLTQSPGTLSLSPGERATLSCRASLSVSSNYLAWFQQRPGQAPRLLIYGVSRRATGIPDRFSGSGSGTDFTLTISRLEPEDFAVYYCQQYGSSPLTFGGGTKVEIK | 9.12
STLX2051 (antibody, V domains shown, Purified from hybridoma of immunized Alivamab mice; intact IgG; captured on anti-mouse IgG Fc sensors in Octet; kappa light chain; also called 74804_51C10A) VH: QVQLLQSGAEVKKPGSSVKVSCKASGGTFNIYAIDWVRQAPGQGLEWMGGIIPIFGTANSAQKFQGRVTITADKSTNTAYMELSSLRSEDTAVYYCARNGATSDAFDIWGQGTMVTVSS VL: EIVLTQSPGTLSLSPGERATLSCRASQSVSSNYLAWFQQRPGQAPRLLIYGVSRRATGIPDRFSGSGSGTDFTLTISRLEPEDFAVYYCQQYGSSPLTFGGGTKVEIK | 8.85
STLX2043 (antibody, V domains shown, Purified from hybridoma of immunized Alivamab mice; intact IgG; captured on anti-mouse IgG Fc sensors in Octet; kappa light chain; also called 74804_43F04A) VH: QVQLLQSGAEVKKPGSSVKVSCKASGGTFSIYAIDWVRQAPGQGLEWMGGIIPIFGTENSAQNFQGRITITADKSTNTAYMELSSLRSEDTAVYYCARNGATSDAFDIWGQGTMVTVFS VL: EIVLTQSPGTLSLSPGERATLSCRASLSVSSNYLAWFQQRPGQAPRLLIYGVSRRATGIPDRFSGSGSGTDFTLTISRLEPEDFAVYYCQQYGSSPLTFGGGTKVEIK | 9.01
STLX2027 (antibody, V domains shown, Purified from hybridoma of immunized Alivamab mice; intact IgG; captured on anti-mouse IgG Fc sensors in Octet; lambda light chain; also called 74804_27I24A) VH: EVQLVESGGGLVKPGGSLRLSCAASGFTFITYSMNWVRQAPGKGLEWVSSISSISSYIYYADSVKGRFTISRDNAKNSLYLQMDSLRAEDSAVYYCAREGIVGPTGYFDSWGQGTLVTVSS VL: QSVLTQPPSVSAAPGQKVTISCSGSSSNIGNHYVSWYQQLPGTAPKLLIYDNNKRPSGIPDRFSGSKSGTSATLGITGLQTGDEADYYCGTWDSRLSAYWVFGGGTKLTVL | 8.55
